Origin of measurements: PubChem BioAssay (NCATS)

experiment: Primary qHTS for small molecule stabilizers of the endoplasmic reticulum resident proteome: Secreted ER Calcium Modulated Protein (SERCaMP) assay (AID 1508630); conditions: SH-SY5Y GLuc-SERCaMP (Gaussia luciferase released on ER calcium loss) secretion, thapsigargin, luminescence; series mostly up to 38.4 µM
Inconclusive results are not listed. The source made the active and inactive calls. Calls follow the shape of the dose curve; as a rule, active = well fitted inhibition curve with a large enough effect; inconclusive = small, poorly fitted or top-dose-only effect; inactive = no such curve, though single readings can be large or run the other way.

{"compound": "CCCCC(C=O)NC(=O)C(CC(C)C)NC(=O)OCc1ccccc1 (centres undefined)", "outcome": "inactive"}
{"compound": "CCCCCCCCCCCCCC(=O)N[C@H](CO)[C@H](O)c1ccc([N+](=O)[O-])cc1", "outcome": "inactive"}
{"compound": "CN[C@H]1[C@@H](O[C@@H]2[C@H](O[C@@H]3[C@@H](O)[C@@H](O)[C@@H](N=C(N)N)[C@@H](O)[C@@H]3N=C(N)N)O[C@H](C)[C@@]2(O)C=O)O[C@@H](CO)[C@@H](O)[C@H]1O", "outcome": "inactive"}
{"compound": "CN1CCN2c3ncccc3Cc3ccccc3C2C1 (centres undefined)", "outcome": "inactive"}

----------
Test: qHTS drug screen for cell cycle checkpoint inhibitors in PARPi-resistant BRCA-mutant ovarian cancer cell lines. (AID 1963452)
Settings: PEO1/OlaR viability, CellTiter-Glo luminescence, 96 h; measured here: PEO4 Z-AUC; stronger effect = lower value
Text: Women's Malignancies Branch, Center for Cancer Research (CCR), National Cancer Institute (NCI), National Institutes of Health (NIH), Bethesda, MD Poly (ADP-ribose) polymerase inhibitors (PARPis) have changed the treatment paradigm in breast cancer gene (BRCA) - mutant high-grade serous ovarian carcinoma (HGSC). […] 6; Detection; Luminescence, PHERAstar (BMG Labtech) plate reader. […] 6. Luminescence readings were taken using PHERAstar (BMG Labtech). […]
measurement.type: Z-AUC
// keep it numeric: no unit symbol after the value

Solved cases (6 shown):
{"compound": "Cc1ccc(S(=O)(=O)OCC(=O)Nc2ccc(C(=O)O)c(O)c2)cc1", "Z-AUC": 1.35}
{"compound": "NS(=O)(=O)c1ccc(Nc2nc(OCC3CCCCC3)c3[nH]cnc3n2)cc1", "Z-AUC": -1.12}
{"compound": "COc1ccc(CCC(=O)Nc2nc3ccc(Cl)cc3s2)cc1OC", "Z-AUC": -0.954}
{"compound": "NCC1CCC(C(=O)O)CC1 (stereo not given)", "Z-AUC": -0.142}
{"compound": "CN1CCC(COc2cnc(-c3cccc(Cn4nc(-c5cccc(C#N)c5)ccc4=O)c3)nc2)CC1", "Z-AUC": -0.442}
{"compound": "CC1CNc2c(cccc2S(=O)(=O)N[C@@H](CCCN=C(N)N)C(=O)N2CC[C@@H](C)C[C@@H]2C(=O)O)C1 (stereo not given in full)", "Z-AUC": 1.06}

Bench note: what Z-AUC did `C[C@]12CC[C@@H]3c4ccc(O)cc4CC[C@H]3[C@H]1[C@@H](O)[C@@H](O)[C@H]2O` show?
0.542

Bench note: what Z-AUC did `CCC(=O)N1CCN(c2ccc(-n3c(=O)ccc4cnc5ccc(-c6cnc7ccccc7c6)cc5c43)cc2C(F)(F)F)CC1` show?
-1.97

Bench note: what Z-AUC did CNC1CCC(N(Cc2cccc(-c3ccncc3)c2)C(=O)c2sc3ccccc3c2Cl)CC1 (stereo not given) show?
0.329

Bench note: what Z-AUC did `Cc1ccc(C2=Nc3ccc(Cl)cc3OC2)cc1` show?
0.727

Bench note: what Z-AUC did `COc1cc2nccc(Oc3ccc(NC(=O)Nc4ccc(F)cc4F)c(F)c3)c2cc1OC` show?
0.26

Bench note: what Z-AUC did `CN[C@@H](C)[C@H]1[C@H](O)C[C@@]2(C)[C@@H]3CC[C@H]4C(C)(C)[C@@H](NC)CC[C@@]45C[C@@]35CC[C@]12C` show?
0.673

Bench note: what Z-AUC did `Cc1cnc(CNC(=O)c2c(=O)c3ccc(N4CCCN(C)CC4)nc3n3c2sc2ccccc23)cn1` show?
0.0193
